Target: human histamine H3 receptor (Homo sapiens)
Sequence (Q9Y5N1 whole entry): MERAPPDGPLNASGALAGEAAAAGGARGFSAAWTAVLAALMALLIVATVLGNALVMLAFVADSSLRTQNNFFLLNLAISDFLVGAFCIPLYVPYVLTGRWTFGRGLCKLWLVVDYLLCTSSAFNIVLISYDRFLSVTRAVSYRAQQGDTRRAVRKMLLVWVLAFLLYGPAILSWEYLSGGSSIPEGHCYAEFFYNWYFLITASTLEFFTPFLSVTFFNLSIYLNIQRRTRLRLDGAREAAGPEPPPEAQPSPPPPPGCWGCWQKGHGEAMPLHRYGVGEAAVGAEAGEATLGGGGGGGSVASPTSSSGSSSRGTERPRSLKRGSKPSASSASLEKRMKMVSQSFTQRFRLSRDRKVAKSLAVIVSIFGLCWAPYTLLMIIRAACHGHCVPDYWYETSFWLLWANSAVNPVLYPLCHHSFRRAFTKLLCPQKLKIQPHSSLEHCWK
pKi: −log10 of the molar value.
Criterion: pKi meeting or surpassing 8. Met: TRUE. Not met: FALSE.

O=S(=O)(c1ccc(CN2CCCC2)cc1)c1ccc(CN2CCCC2)cc1 : TRUE

-- ask Please tell me: is the compound CN(C)CCOc1ccc(C(=O)c2ccc(OCCN(C)C)cc2)cc1 at or over 8 in terms of pKi?
-- reply FALSE

---

Ki, human histamine H3 receptor (Homo sapiens): measured values
Where a name gives a salt, the structure may show the parent alone.
One number for each entry, in nM.

Example cases with answers are listed next.
ON=Cc1ccc(-c2ccc(CN3CCCC3)cc2)cc1 : 6.5
c1ccc(CN(c2ccc(CN3CCCC3)cc2)c2ccc(CN3CCCC3)cc2)cc1 : 15

Next compound, Ki to be filled in.
-- ask Which Ki reading was recorded for the compound CN(C)CCCSc1ccc(C(=O)c2ccc(SCCCN(C)C)cc2)cc1 [Example 32, dihydrochloride] ?
-- reply 14
